# MEASUREMENT NOTES: Log P (n-octanol/water) of perfuming compounds
# ASSAY SETUP: Table 7, citrus note
Listed compounds paired with reported Log P (n-octanol/water)

Sample answers from the record:
# COMPOUND, Log P (n-octanol/water)
data = [
    ("CC/C=C\\CCOC(=O)c1ccccc1 [(3Z)-3-hexen-1-yl benzoate]", 4.21),
    ("CCC/C=C/C=O", 1.62),
]

Lab note: next compound to report on.
Incoming: What value of measured Log P (n-octanol/water) is listed for C=CCCCCCCCCO ?
Outgoing: 3.70

* * *

# MEASUREMENT NOTES: Odor threshold of perfuming compounds in air
# ASSAY SETUP: Table 4, watery note
# if measured Odor Threshold < 0.0002 μg/l air: 1 (yes)  # else: 0 (no)

# COMPOUND, ASSIGNED CLASS
data = [
    ("CCCc1ccc2c(c1)OCC(=O)CO2 [7-PROPYL-2H,4H-1,5-BENZODIOXEPIN-3-ONE]", "1 (yes)"),
    ("CC(CC=O)CCCC(C)(C)O (racemic) [(+−)-7-hydroxy-3,7-dimethyloctanal]", "0 (no)"),
    ("CC(C)=CCCC1=CCC(C)(C=O)CC1 (racemic)", "0 (no)"),
    ("CC(C)=CCCC(C)CCCC(C)C=O (racemic)", "0 (no)"),
    ("CCCCCCCCCC(C)C=O (racemic) [(+−)-2-methylundecanal]", "1 (yes)"),
    ("CCCCCCCCCC=O [DECANAL″, DECANAL]", "0 (no)"),
]

Incoming: Lab log: compare recorded Odor Threshold with 0.0002 μg/l air; is it strictly lower for CCCCCCC#CC(=O)OC [METHYL 2-NONYNOATE] ?
Outgoing: 0 (no)

Incoming: Lab log: compare recorded Odor Threshold with 0.0002 μg/l air; is it strictly lower for CC(C=O)Cc1ccc(C(C)(C)C)cc1 (racemic) ?
Outgoing: 0 (no)

Incoming: Lab log: compare recorded Odor Threshold with 0.0002 μg/l air; is it strictly lower for CC(C=O)Cc1ccc(C(C)C)cc1 (racemic) ?
Outgoing: 0 (no)

Incoming: Lab log: compare recorded Odor Threshold with 0.0002 μg/l air; is it strictly lower for CC(C=O)Cc1ccc2c(c1)OCO2 (racemic) ?
Outgoing: 0 (no)

Incoming: Lab log: compare recorded Odor Threshold with 0.0002 μg/l air; is it strictly lower for CC1=CC2CC(C=O)C1CC2C(C)C (centres unmarked) ?
Outgoing: 1 (yes)
